The following binders are shown together with reported kon values.
- Experimental system: T1, cynomolgus Trop-2-His protein (cynomolgus, UniProt P09758 27-274 (human entry))
- T1 construct: also called cynmolgus Trop-His; Kactus Cat #TRP-CM121; not shown: His tag
- T1 chain: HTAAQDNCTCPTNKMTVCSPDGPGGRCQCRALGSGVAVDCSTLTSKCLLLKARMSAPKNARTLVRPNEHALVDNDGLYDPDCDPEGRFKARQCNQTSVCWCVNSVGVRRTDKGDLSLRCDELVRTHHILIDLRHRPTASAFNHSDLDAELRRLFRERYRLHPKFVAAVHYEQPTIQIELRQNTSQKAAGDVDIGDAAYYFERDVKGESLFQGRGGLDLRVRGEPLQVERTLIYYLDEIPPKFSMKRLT
- Test protocol: BLI (Gator Prime), LEM supernatant Ab on HFC probe
Attribute measured: kon (M⁻¹ s⁻¹)

{"Binder": "3A4 (antibody, V domains shown, Rabbit-derived clone; LEM construct: VH + rabbit IgG CH1 + human IgG1 CH2-CH3) VH: QEQLVESGGGLVQPGGSLTLSCKGSGFDFNEYGVSWVRQAPGKGLEWIAYIYPAFHNTYYATWVNGRFTISSHNAQNTLYLQLHTLTAADTATYFCARDAGTTDYNFNLWGPGTLVTVSS VL: DVVMTQTPASVSAAVGGTVSINCQASEDIENYLAWYQQKPGQPPKLLIYEASKLASGVSSRFSGSGYGTEFTLTISGVECADAATYYCQQALTIGNVDNPFGGGSEVVVK", "Endpoint value": 729000}
{"Binder": "2H5 (antibody, V domains shown, Rabbit-derived clone; LEM construct: VH + rabbit IgG CH1 + human IgG1 CH2-CH3) VH: QSLEESGGDLVQPGASLTLTCKASGFDLNNYSILWVRQAPGKGLEWIGCIYFSGGSTYYANWAKGRFAISKTSSTTVTLQMTSLTAADTATYFCARDDGTTSYYLNLWGPGTLVTVSS VL: YDMTQTPASVSEPVGGTVTIKCQASEDIYNLLAWYQQKPGQPPKLLIYAASDLESGVPSRFKGSGSGTEYTLTISDLECADAATYYCQQAYTVGNIDNAFGGGTEVVVK", "Endpoint value": 460000}
{"Binder": "70E2 (antibody, V domains shown, Rabbit-derived clone; LEM construct: VH + rabbit IgG CH1 + human IgG1 CH2-CH3) VH: QSLEESGGGLVKPGGTLTLTCTVSGFDFSNYAMTWVRQAPGKGLEYIGFIGIRGNIYYANWAKGRFTISKTSSTTVTLQMTSLTVADTATYFCARGGLWTGNSYFDLWGPGTLVTVSS VL: YDMTQTPASVEVPVGGTVTINCQASENINRYLAWYQQKPGQPPKPLIYRAATLASGVPSRFKGSGSGTEYTLSISDLECADAATYYCQQGYGYSTVGNAFGGGTEVVVK", "Endpoint value": 657000}

src = patent US20250206841A1
